- Test system: multi-resistant K1 Plasmodium falciparum strain
- protocolDescription: in vitro antiplasmodial activity, K1 strain (Table 1)
- Assay type: cell-based
- measurementSetup: Plasmodium falciparum, K1, read-out: IC50 P fK1
measureName: pIC50
The value called pIC50 is obtained by taking minus log10 of the concentration in mol/L.

response.value for CCN(CC)CCCC(C)Nc1ccnc2cc(Cl)ccc12 (stereo not shown) [Chloroquine, reference compound] (field: pIC50) = 6.22

====

Kindly state CC50 for each of the entries shown.
- System: human HepG2 cell line
Give the quantity in µM, number only.

Per the record, O=S(=O)(Nc1nc(C(Cl)(Cl)Cl)nc2ccccc12)c1cccc2ccccc12 has CC50 of 47.8

Given item O=S(=O)(Nc1nc(C(Cl)(Cl)Cl)nc2ccccc12)c1ccc2ccccc2c1 , the value recorded as its CC50 is 48.8

====

measureName: melting point (°C)
Report the value in °C with no unit label.

The recorded melting point for entry O=S(=O)(Nc1nc(C(Cl)(Cl)Cl)nc2ccccc12)c1cccc(C(F)(F)F)c1 equals 255

Notebook: N#Cc1ccc(S(=O)(=O)Nc2nc(C(Cl)(Cl)Cl)nc3ccccc23)cc1 , melting point read as 204

GET /value?item= O=S(=O)(Nc1nc(C(Cl)(Cl)Cl)nc2ccccc12)c1ccc(C(F)(F)F)cc1 &field=melting point returns 166

Please fill in: melting point reported for O=S(=O)(Nc1nc(C(Cl)(Cl)Cl)nc2ccccc12)c1cccc(F)c1 = 194

====

- protocolDescription: cytotoxicity toward the human HepG2 cell line (CC50)
- measurementSetup: HepG2 cells
Task for the reader: assign each of the following compounds its reported CC50.
Provide the reading as a plain figure in µM.

Short answer for O=S(=O)(Nc1nc(C(Cl)(Cl)Cl)nc2ccccc12)c1ccccc1 : CC50 was 82

Form: compound = O=S(=O)(Nc1nc(C(Cl)(Cl)Cl)nc2ccccc12)c1cccc(C(F)(F)F)c1 ; CC50 = 75.1

# compound C[C@H]1c2cccc(O)c2C(=O)C2=C(O)[C@]3(O)C(=O)C(C(N)=O)=C(O)[C@@H](N(C)C)[C@@H]3[C@@H](O)[C@@H]21 [Doxycycline, reference compound] ; its CC50 = 20

Item: N#Cc1ccc(S(=O)(=O)Nc2nc(C(Cl)(Cl)Cl)nc3ccccc23)cc1 | CC50: 73.8

====

Give melting point for every item shown.
Kindly answer with a numeric value in °C, unit omitted.

Reported melting point ( O=S(=O)(Nc1nc(C(Cl)(Cl)Cl)nc2ccccc12)c1ccc(-c2ccccc2)cc1 ) = 210

Value of melting point reported for the molecule O=S(=O)(Nc1nc(C(Cl)(Cl)Cl)nc2ccccc12)c1ccccc1F is 188

get_value(item= O=S(=O)(Nc1nc(C(Cl)(Cl)Cl)nc2ccccc12)c1cccs1 , readout=melting point) returns 191

Please fill in: melting point reported for O=S(=O)(Nc1nc(C(Cl)(Cl)Cl)nc2ccccc12)c1ccccc1 = 200

get_value(item= O=S(=O)(Nc1nc(C(Cl)(Cl)Cl)nc2ccccc12)c1ccccc1C(F)(F)F , readout=melting point) returns 205

melting point in this record for O=[N+]([O-])c1ccc(S(=O)(=O)Nc2nc(C(Cl)(Cl)Cl)nc3ccccc23)cc1 : 250

====

- Tested on: multi-resistant W2 or K1 Plasmodium falciparum strains
- protocolDescription: in vitro antiplasmodial activity, 2-trichloromethylquinazoline series (Table 2)
- Format: cell-based
- measurementSetup: Plasmodium falciparum; Table 2; sulfonamide series and reference drugs; read-out: IC50 P. falc.
measureName: IC50 (µM)
Please reply with the bare figure in µM and do not write the unit itself.

The value of IC50 measured for the molecule C[C@H]1c2cccc(O)c2C(=O)C2=C(O)[C@]3(O)C(=O)C(C(N)=O)=C(O)[C@@H](N(C)C)[C@@H]3[C@@H](O)[C@@H]21 [Doxycycline, reference compound] turned out to be 6
